# MEASUREMENT TARGET: Human sEH (Homo sapiens (Human), UniProt P34913)
# Sequence (P34913 whole entry): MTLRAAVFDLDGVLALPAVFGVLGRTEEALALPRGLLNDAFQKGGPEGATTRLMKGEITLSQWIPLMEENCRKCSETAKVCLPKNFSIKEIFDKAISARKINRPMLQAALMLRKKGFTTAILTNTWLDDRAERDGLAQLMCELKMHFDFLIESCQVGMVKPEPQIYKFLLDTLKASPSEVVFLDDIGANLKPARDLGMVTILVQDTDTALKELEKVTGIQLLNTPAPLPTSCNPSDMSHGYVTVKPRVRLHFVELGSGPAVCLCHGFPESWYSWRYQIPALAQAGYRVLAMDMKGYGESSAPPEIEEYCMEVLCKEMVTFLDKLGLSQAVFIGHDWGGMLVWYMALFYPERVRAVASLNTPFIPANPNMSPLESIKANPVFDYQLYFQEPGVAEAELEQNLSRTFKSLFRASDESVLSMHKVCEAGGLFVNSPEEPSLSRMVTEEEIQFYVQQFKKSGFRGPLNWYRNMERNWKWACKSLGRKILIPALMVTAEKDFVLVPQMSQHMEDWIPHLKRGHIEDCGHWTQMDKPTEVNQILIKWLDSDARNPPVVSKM
RESULT TYPE: pIC50
Formally, pIC50 is defined as -log10 of the concentration c, with c in mol/L.

What value of pIC50 on Human sEH (Homo sapiens (Human), UniProt P34913) does CCC(=O)Nc1cc(Cl)c(Oc2ccc(O)c(-c3ccc(NC(C)=O)cc3)c2)c(Cl)c1 [Compound 8j] have? 5.11

* * *

# MEASUREMENT TARGET: Cif (Pseudomonas aeruginosa (strain UCBPP-PA14))
# Sequence (A0A0H2ZD27 25-319 limits assumed): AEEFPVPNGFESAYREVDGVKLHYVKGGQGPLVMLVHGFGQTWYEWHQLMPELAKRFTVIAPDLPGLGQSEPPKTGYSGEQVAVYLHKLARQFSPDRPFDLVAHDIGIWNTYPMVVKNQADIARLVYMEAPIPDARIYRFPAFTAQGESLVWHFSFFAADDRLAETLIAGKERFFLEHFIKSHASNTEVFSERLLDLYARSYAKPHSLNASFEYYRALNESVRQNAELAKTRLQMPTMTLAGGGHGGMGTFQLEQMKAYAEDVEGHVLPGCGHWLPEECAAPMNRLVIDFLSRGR
# PROCEDURE TEXT: Secondary screen (sextuplicate) with fluorogenic substrate CMNGC;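 also: purified enzyme assay in 96-well plates, 200 µL volume, fluorescence recorded each minute across a 60 min reaction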
# Type: biochemical
# CONDITION DETAILS: secondary screen, 10 μM, plate number 2
RESULT TYPE: % Inhibition, plate 2 (%)
# number only, unit % dropped from output

Solved cases (4 shown):
CC(=O)[C@@]12O[C@](C)(c3ccccc3)O[C@@H]1C[C@H]1[C@@H]3CCC4=CC(=O)CC[C@]4(C)[C@H]3CC[C@@]12C [Algestone acetophenide] ... −2
CC(=O)[C@H]1CC[C@H]2[C@@H]3CC=C4C[C@@H](OC(=O)CCC(=O)O)CC[C@]4(C)[C@H]3CC[C@]12C [Pregnenolone succinate] ... 12
C[C@@H]1C[C@H]2[C@@H]3CCC4=CC(=O)C=C[C@]4(C)[C@@]3(F)[C@@H](O)C[C@]2(C)[C@H]1C(=O)CO ... 42
CCCCCCCCCCCCCCCC[N+](C)(C)C.[Br-] [Cetrimonium bromide] ... −1

Switching to the query record.
Can you look up the measured % Inhibition, plate 2 of CC(O)CN1CCN(CC(=O)[O-])CCN(CC(=O)[O-])CCN(CC(=O)[O-])CC1.[Gd+3] (centres unmarked) for me? 3

Hey, just so you know, these numbers are from patent US10322118B2.
